The measured values listed here are drawn from ChEMBL document CHEMBL6078645.

- system: CYP2C9 (Homo sapiens, UniProt P11712)
- Sequence (P11712 whole entry): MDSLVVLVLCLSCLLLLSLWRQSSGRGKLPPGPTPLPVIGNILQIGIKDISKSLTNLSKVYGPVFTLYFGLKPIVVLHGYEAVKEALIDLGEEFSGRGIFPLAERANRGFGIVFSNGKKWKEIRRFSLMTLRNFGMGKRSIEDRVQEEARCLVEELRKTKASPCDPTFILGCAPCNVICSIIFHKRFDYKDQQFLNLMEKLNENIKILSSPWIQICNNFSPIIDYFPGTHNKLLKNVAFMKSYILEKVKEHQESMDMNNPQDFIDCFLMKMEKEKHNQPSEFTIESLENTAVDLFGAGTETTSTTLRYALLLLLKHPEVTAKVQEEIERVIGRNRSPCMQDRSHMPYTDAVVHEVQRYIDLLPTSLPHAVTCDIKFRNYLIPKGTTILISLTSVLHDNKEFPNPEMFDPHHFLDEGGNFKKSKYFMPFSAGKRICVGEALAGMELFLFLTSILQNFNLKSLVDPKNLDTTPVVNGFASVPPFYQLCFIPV
- assay_summary: Inhibition of CYP2C9 in human liver microsome preincubated with compound for 10 minutes followed NADPH addition and measured after 15 mins by LC-MS/MS analysis
- Type: ADME, microsomes
- run_parameters: human, human liver microsomes

{"columns": ["smiles_input", "system", "IC50 at 15 min"],
 "data": [
  ["N#Cc1ccc(Nc2ncc(CO)c(Oc3c(F)cc(-c4ccc(C#N)cc4)cc3F)n2)cc1", "CYP2C9 (Homo sapiens, UniProt P11712)", "> 25 µM"]
]}

====

- assay_summary: Cytotoxicity against human MT4 cells assessed as reduction in cell viability incubated for 5 days by MTT assay
- Assay type: toxicity, cell-based
- run_parameters: MT4 cells, time 5 day
Examples of compounds with documented log10 CC50 at 120 h follow.
experimental_endpoint: log10 CC50 at 120 h (log10 of the value in µM)

{"columns": ["smiles_input", "log10 CC50 at 120 h"],
 "data": [
  ["Cc1cc(-c2ccc(C#N)cc2)cc(C)c1Oc1nc(NC2CCN(Cc3ccc(S(C)(=O)=O)cc3)CC2)ncc1CO", 0.96],
  ["Cc1cc(-c2ccncc2)cc(C)c1Oc1nc(NC2CCN(Cc3ccc(S(=O)(=O)N4CCC(O)CC4)cc3)CC2)ncc1CO", 1.25],
  ["CNC(=O)c1ccc(CN2CCC(Nc3ncc(CO)c(Oc4c(C)cc(-c5ccc(C#N)cc5)cc4C)n3)CC2)cc1", 1.45],
  ["COCCNC(=O)c1ccc(CN2CCC(Nc3ncc(CO)c(Oc4c(C)cc(-c5ccncc5)cc4C)n3)CC2)cc1", 2.04],
  ["COCCNC(=O)c1ccc(CN2CCC(Nc3ncc(CO)c(Oc4c(C)cc(-c5ccc(C#N)cc5)cc4C)n3)CC2)cc1", 1.25],
  ["Cc1cc(-c2ccc(C#N)cc2)cc(C)c1Oc1nc(NC2CCN(Cc3ccc(CO)cc3)CC2)ncc1CO", 1.26],
  ["Cc1ccc(CN2CCC(Nc3ncc(CO)c(Oc4c(C)cc(-c5ccc(C#N)cc5)cc4C)n3)CC2)cc1", 0.56]
]}

====

- assay_summary: Selectivity index, ratio of CC50 for cytotoxicity against human MT4 cells assessed as reduction in cell viability to EC50 for antiviral activity against wild type HIV-1 IIIB infected in human MT4 cells assessed as protection against virus-induced cytopathic effect
- Type: toxicity, cell-based
- run_parameters: MT4 cells, read-out: Ratio CC50/EC50

{"columns": ["smiles_input", "lt_gt_eq", "selectivity ratio"],
 "data": [
  ["CNC(=O)c1cccc(CN2CCC(Nc3ncc(CO)c(Oc4c(C)cc(-c5ccc(C#N)cc5)cc4C)n3)CC2)c1", "=", 506],
  ["Cc1cc(-c2ccc(C#N)cc2)cc(C)c1Oc1nc(NC2CCN(Cc3ccc(C(F)(F)F)cc3)CC2)ncc1CO", "=", 127],
  ["Cc1cc(-c2ccc(C#N)cc2)cc(C)c1Oc1nc(NC2CCN(Cc3ccc(F)cc3)CC2)ncc1CO", "=", 629],
  ["Cc1cc(-c2ccc(C#N)cc2)cc(C)c1Oc1nc(NC2CCN(Cc3ccc(S(N)(=O)=O)cc3)CC2)ncc1CO", "=", 6540],
  ["Cc1cc(-c2ccc(C#N)cc2)cc(C)c1Oc1nc(NC2CCN(Cc3ccc(S(C)(=O)=O)cc3)CC2)ncc1CO", "=", 1190],
  ["Cc1cc(-c2ccncc2)cc(C)c1Oc1nc(NC2CCN(Cc3ccc(C(N)=O)cc3)CC2)ncc1CO", ">", 24800],
  ["Cc1cc(-c2ccncc2)cc(C)c1Oc1nc(NC2CCN(Cc3ccc(S(=O)(=O)NCCO)cc3)CC2)ncc1CO", "=", 5080],
  ["Cc1cc(-c2ccc(C#N)cc2)cc(C)c1Oc1nc(NC2CCN(Cc3cccc(C(N)=O)c3)CC2)ncc1CO", "=", 2230]
]}

====

- system: Human immunodeficiency virus type 1 reverse transcriptase (Human immunodeficiency virus 1)
- assay_summary: Inhibition of HIV-1 reverse transcriptase
experimental_endpoint: EC50 (nM)

{"columns": ["compound", "system", "numeric_result"],
 "data": [
  ["Cc1cc(/C=C/C#N)cc(C)c1Nc1ccnc(Nc2ccc(C#N)cc2)n1 [RILPIVIRINE]", "Human immunodeficiency virus type 1 reverse transcriptase (Human immunodeficiency virus 1)", 1],
  ["COC(=O)/C=C/c1ccc(CN2CCC(Nc3ncc(CO)c(Oc4c(C)cc(-c5ccc(C#N)cc5)cc4C)n3)CC2)cc1", "Human immunodeficiency virus type 1 reverse transcriptase (Human immunodeficiency virus 1)", 7],
  ["Cc1cc(-c2ccc(C#N)cc2)cc(C)c1Oc1nc(NC2CCN(Cc3cccc(C#N)c3)CC2)ncc1CO", "Human immunodeficiency virus type 1 reverse transcriptase (Human immunodeficiency virus 1)", 8]
]}

====

- system: CYP3A4 (Homo sapiens)
- Sequence (P08684 whole entry): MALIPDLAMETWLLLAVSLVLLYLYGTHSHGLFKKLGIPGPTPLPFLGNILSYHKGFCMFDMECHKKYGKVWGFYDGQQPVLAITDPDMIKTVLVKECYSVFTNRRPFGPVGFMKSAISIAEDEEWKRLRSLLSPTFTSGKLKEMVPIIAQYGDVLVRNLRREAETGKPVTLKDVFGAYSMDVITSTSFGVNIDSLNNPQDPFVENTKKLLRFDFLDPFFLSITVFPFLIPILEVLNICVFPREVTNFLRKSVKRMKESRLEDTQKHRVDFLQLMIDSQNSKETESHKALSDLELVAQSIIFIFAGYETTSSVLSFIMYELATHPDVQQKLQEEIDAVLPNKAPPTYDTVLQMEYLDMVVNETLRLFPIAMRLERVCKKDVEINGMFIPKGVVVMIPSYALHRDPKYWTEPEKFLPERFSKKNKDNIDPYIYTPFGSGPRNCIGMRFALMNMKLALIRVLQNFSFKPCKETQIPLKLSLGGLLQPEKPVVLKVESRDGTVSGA
- assay_summary: Inhibition of CYP3A4 in human liver microsome using midazolam as substrate preincubated with compound for 10 minutes followed NADPH addition and measured after 15 mins by LC-MS/MS analysis
- Type: ADME, microsomes
- run_parameters: human, human liver microsomes, probe midazolam
experimental_endpoint: IC50 at 15 min

{"columns": ["smiles_input", "system", "result"],
 "data": [
  ["N#Cc1ccc(Nc2ncc(CO)c(Oc3c(F)cc(-c4ccc(C#N)cc4)cc3F)n2)cc1", "CYP3A4 (Homo sapiens)", "> 25 µM"]
]}

====

- system: Human immunodeficiency virus type 1 reverse transcriptase (Human immunodeficiency virus 1)
- assay_summary: Inhibition of HIV-1 reverse transcriptase

{"columns": ["smiles_input", "unit_spec", "EC50"],
 "data": [
  ["Cc1cc(-c2ccc(C#N)cc2)cc(C)c1Oc1nc(NC2CCN(Cc3cccc([N+](=O)[O-])c3)CC2)ncc1CO", "nM", 9],
  ["Cc1cc(-c2ccc(C#N)cc2)cc(C)c1Oc1nc(NC2CCN(Cc3ccc(S(=O)(=O)NCCO)cc3)CC2)ncc1CO", "nM", 10],
  ["Cc1cc(-c2ccc(C#N)cc2)cc(C)c1Oc1nc(NC2CCN(Cc3ccc(C#N)cc3)CC2)ncc1CO", "nM", 7],
  ["COCCNS(=O)(=O)c1ccc(CN2CCC(Nc3ncc(CO)c(Oc4c(C)cc(-c5ccc(C#N)cc5)cc4C)n3)CC2)cc1", "nM", 6],
  ["CNS(=O)(=O)c1ccc(CN2CCC(Nc3ncc(CO)c(Oc4c(C)cc(-c5ccc(C#N)cc5)cc4C)n3)CC2)cc1", "nM", 6],
  ["Cc1cc(-c2ccc(C#N)cc2)cc(C)c1Oc1nc(NC2CCN(Cc3ccc(C(F)(F)F)cc3)CC2)ncc1CO", "nM", 40],
  ["N#Cc1ccc(Nc2ncc(CO)c(Oc3c(F)cc(-c4ccc(C#N)cc4)cc3F)n2)cc1", "nM", 1],
  ["Cc1ccc(CN2CCC(Nc3ncc(CO)c(Oc4c(C)cc(-c5ccc(C#N)cc5)cc4C)n3)CC2)cc1", "nM", 13]
]}

====

- system: Human immunodeficiency virus type 1 reverse transcriptase (Human immunodeficiency virus 1)
- assay_summary: Inhibition of HIV-1 reverse transcriptase
pEC50: −log10 of the molar value.
Consider the following molecules and their measured pEC50 readings.
experimental_endpoint: pEC50

{"columns": ["smiles_input", "numeric_result"],
 "data": [
  ["Cc1cc(-c2ccc(C#N)cc2)cc(C)c1Oc1nc(NC2CCN(Cc3ccc(S(=O)(=O)NCCCO)cc3)CC2)ncc1CO", 7.59],
  ["COCCNC(=O)c1ccc(CN2CCC(Nc3ncc(CO)c(Oc4c(C)cc(-c5ccc(C#N)cc5)cc4C)n3)CC2)cc1", 8.05],
  ["Cc1cc(-c2ccc(C#N)cc2)cc(C)c1Oc1nc(NC2CCN(Cc3ccc(C(=O)NCCO)cc3)CC2)ncc1CO", 7.85],
  ["Cc1cc(-c2ccc(C#N)cc2)cc(C)c1Oc1nc(NC2CCN(Cc3ccc(C(N)=O)cc3)CC2)ncc1CO", 8.15],
  ["Cc1cc(-c2ccc(C#N)cc2)cc(C)c1Oc1nc(NC2CCN(Cc3ccccc3C#N)CC2)ncc1CO", 8.10],
  ["Cc1cc(-c2ccc(C#N)cc2)cc(C)c1Oc1nc(NC2CCN(Cc3ccc([N+](=O)[O-])cc3)CC2)ncc1CO", 8.10],
  ["Cc1cc(-c2ccc(C#N)cc2)cc(C)c1Oc1nc(NC2CCN(Cc3ccc(S(N)(=O)=O)cc3)CC2)ncc1CO", 8.52],
  ["Cc1cc(-c2ccc(C#N)cc2)cc(C)c1Oc1nc(NC2CCN(Cc3ccc(OC(F)(F)F)cc3)CC2)ncc1CO", 7.37],
  ["Cc1cc(-c2ccc(C#N)cc2)cc(C)c1Oc1nc(NC2CCN(Cc3ccc(S(C)(=O)=O)cc3)CC2)ncc1CO", 8.10],
  ["Cc1cn([C@H]2C[C@H](N=[N+]=[N-])[C@@H](CO)O2)c(=O)[nH]c1=O", 7.57],
  ["Cc1cc(-c2ccc(C#N)cc2)cc(C)c1Oc1nc(NC2CCN(Cc3cccc(C(N)=O)c3)CC2)ncc1CO", 8.10],
  ["CNC(=O)c1cccc(CN2CCC(Nc3ncc(CO)c(Oc4c(C)cc(-c5ccc(C#N)cc5)cc4C)n3)CC2)c1", 7.40],
  ["COC(=O)c1ccc(CN2CCC(Nc3ncc(CO)c(Oc4c(C)cc(-c5ccc(C#N)cc5)cc4C)n3)CC2)cc1", 7.92],
  ["CNC(=O)c1ccc(CN2CCC(Nc3ncc(CO)c(Oc4c(C)cc(-c5ccc(C#N)cc5)cc4C)n3)CC2)cc1", 7.64],
  ["Cc1cc(-c2ccc(C#N)cc2)cc(C)c1Oc1nc(NC2CCN(Cc3ccc(F)cc3)CC2)ncc1CO", 8.05],
  ["Cc1cc(-c2ccc(C#N)cc2)cc(C)c1Oc1nc(NC2CCN(Cc3ccc(C(=O)NCCCO)cc3)CC2)ncc1CO", 8.15]
]}
